src = patent US20100216791A1

Target: Mutant B-Raf (V600E) enzyme (MT B-Raf) (Homo sapiens, UniProt P15056, V600E)
Sequence (P15056 whole entry V600E): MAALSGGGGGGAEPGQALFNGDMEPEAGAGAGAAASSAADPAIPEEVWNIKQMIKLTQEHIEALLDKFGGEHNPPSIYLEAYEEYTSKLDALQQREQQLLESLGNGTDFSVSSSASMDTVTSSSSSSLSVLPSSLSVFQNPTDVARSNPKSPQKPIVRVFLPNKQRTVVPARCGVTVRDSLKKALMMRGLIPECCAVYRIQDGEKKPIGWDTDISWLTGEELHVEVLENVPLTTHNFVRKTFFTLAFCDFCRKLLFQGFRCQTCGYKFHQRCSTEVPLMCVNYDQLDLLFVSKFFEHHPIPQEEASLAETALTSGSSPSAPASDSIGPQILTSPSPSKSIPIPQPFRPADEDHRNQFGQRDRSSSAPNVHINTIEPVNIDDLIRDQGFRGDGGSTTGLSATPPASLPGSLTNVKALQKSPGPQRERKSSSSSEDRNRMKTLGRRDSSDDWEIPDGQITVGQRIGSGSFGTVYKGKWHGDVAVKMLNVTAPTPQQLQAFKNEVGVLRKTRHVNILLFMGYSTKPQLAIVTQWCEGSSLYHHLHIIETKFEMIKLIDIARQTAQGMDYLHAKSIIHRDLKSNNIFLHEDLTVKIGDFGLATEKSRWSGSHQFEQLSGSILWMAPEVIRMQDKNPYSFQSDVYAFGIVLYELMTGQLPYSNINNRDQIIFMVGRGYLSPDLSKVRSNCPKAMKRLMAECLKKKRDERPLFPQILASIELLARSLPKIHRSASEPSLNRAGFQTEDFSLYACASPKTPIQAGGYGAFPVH
Assay: biochemical
Settings: B-Raf Alpha screen comparable to the described assay; phosphorylation of biotinylated HIS-MEK-AVI; results may be an average of two or more results
Categories are defined by ranges of IC50, namely bottom (below 100 nM), middle (100 nM to below 500 nM), top (500 nM or more)

[[record]]
compound = "COC(=O)c1ccc(Nc2ncc3cc(-c4ccncc4)ccc3n2)cc1 [Example 9]"
class_name = "middle"

[[record]]
compound = "CS(=O)(=O)c1cccc(Nc2ncc3cc(-c4ccncc4)ccc3n2)c1 [Example 104]"
class_name = "middle"

[[record]]
compound = "O=S(=O)(c1ccc(Nc2ncc3cc(-c4ccncc4)ccc3n2)cc1)N1CCOCC1 [Example 94]"
class_name = "middle"

[[record]]
compound = "OCc1ccc(Nc2ncc3cc(-c4ccncc4)ccc3n2)cc1 [Example 78]"
class_name = "bottom"

[[record]]
compound = "CC(C)(C#N)c1ccc(Nc2ncc3cc(-c4ccncc4)ccc3n2)cc1 [Example 2]"
class_name = "top"

[[record]]
compound = "CN(C)[C@H]1CCN(C(=O)c2ccc(Nc3ncc4cc(-c5ccncc5)ccc4n3)cc2)C1 [Example 118]"
class_name = "bottom"

[[record]]
compound = "COCCNC(=O)c1ccnc(Nc2ncc3cc(-c4ccncc4)ccc3n2)c1 [Example 37]"
class_name = "top"

[[record]]
compound = "CCOc1ccc(Nc2ncc3cc(-c4ccncc4)ccc3n2)cc1 [Example 97]"
class_name = "middle"

[[record]]
compound = "O=C(NC1CCNCC1)c1ccc(Nc2ncc3cc(-c4ccncc4)ccc3n2)cc1 [Example 67]"
class_name = "middle"

[[record]]
compound = "O=C(O)c1ccc(Nc2ncc3cc(-c4ccncc4)ccc3n2)cc1 [Example 122]"
class_name = "bottom"

[[record]]
compound = "COCCNC(=O)c1ccc(Nc2ncc3cc(-c4ccncc4)ccc3n2)nc1 [Example 18]"
class_name = "top"

[[record]]
compound = "Fc1ccc(Nc2ncc3cc(-c4ccncc4)ccc3n2)cc1 [Example 105]"
class_name = "top"

[[record]]
compound = "CN1CCN(C(=O)c2ccc(Nc3ncc4cc(-c5ccncc5)ccc4n3)cc2)CC1 [Example 120]"
class_name = "bottom"

[[record]]
compound = "c1cc(-c2ccc3nc(Nc4ccc(N5CCCCC5)cc4)ncc3c2)ccn1 [Example 89]"
class_name = "middle"

[[record]]
compound = "COc1ccc(Nc2ncc3cc(-c4ccncc4)ccc3n2)cc1 [Example 41]"
class_name = "middle"

[[record]]
compound = "CC(c1ccc(Nc2ncc3cc(-c4ccncc4)ccc3n2)cc1)N(C)C (single isomer, unassigned) [Example 140]"
class_name = "bottom"

[[record]]
compound = "O=S(=O)(c1cccc(Nc2ncc3cc(-c4ccncc4)ccc3n2)c1)N1CCCC1 [Example 93]"
class_name = "top"


---

Measured IC50 by item
Molecular target: Mutant B-Raf (V600E) enzyme (MT B-Raf) (Homo sapiens, UniProt P15056, V600E)
Experiment: biochemical
Conditions: B-Raf Alpha screen comparable to the described assay; phosphorylation of biotinylated HIS-MEK-AVI; results may be an average of two or more results
property.label: IC50 (µM)

[[record]]
query_smiles = "CC(=O)N1CCN(C(=O)c2ccc(Nc3ncc4cc(-c5ccncc5)ccc4n3)cc2)CC1"
property_label = "IC50"
test_result = 0.064

[[record]]
query_smiles = "CCN(CCO)Cc1ccc(Nc2ncc3cc(-c4ccncc4)ccc3n2)cc1"
property_label = "IC50"
test_result = 0.099

[[record]]
query_smiles = "CC(C)(C)OC(=O)N1CCC(CNC(=O)c2ccc(Nc3ncc4cc(-c5ccncc5)ccc4n3)cc2)CC1"
property_label = "IC50"
test_result = 0.52

[[record]]
query_smiles = "CC(C)(C)OC(=O)NCCNC(=O)c1ccc(Nc2ncc3cc(-c4ccncc4)ccc3n2)cc1"
property_label = "IC50"
test_result = 0.39

[[record]]
query_smiles = "O=S(=O)(c1ccc(Nc2ncc3cc(-c4ccncc4)ccc3n2)cc1)N1CCCC1"
property_label = "IC50"
test_result = 0.74

[[record]]
query_smiles = "O=C(NCCO)c1ccc(Nc2ncc3cc(-c4ccncc4)ccc3n2)cc1"
property_label = "IC50"
test_result = 0.14


---

Target: Mutant B-Raf (V600E) enzyme (MT B-Raf) (Homo sapiens, UniProt P15056, V600E)
Test: biochemical
Conditions: B-Raf Alpha screen comparable to the described assay; phosphorylation of biotinylated HIS-MEK-AVI; results may be an average of two or more results
pIC50: −log10 of the molar value.
property.label: pIC50

[[record]]
compound = "CC(C)NCCNC(=O)c1ccc(Nc2ncc3cc(-c4ccncc4)ccc3n2)cc1"
target_desc = "Mutant B-Raf (V600E) enzyme (MT B-Raf) (Homo sapiens, UniProt P15056, V600E)"
property_label = "pIC50"
test_result = 6.85

[[record]]
compound = "CC(CN(C)C)NCc1ccc(Nc2ncc3cc(-c4ccncc4)ccc3n2)cc1 (stereo not shown)"
target_desc = "Mutant B-Raf (V600E) enzyme (MT B-Raf) (Homo sapiens, UniProt P15056, V600E)"
property_label = "pIC50"
test_result = 6.80

[[record]]
compound = "CC(c1ccc(Nc2ncc3cc(-c4ccncc4)ccc3n2)cc1)N1CCCC1 (stereo not shown)"
target_desc = "Mutant B-Raf (V600E) enzyme (MT B-Raf) (Homo sapiens, UniProt P15056, V600E)"
property_label = "pIC50"
test_result = 7.72

[[record]]
compound = "Nc1ccc(Nc2ncc3cc(-c4ccncc4)ccc3n2)cc1"
target_desc = "Mutant B-Raf (V600E) enzyme (MT B-Raf) (Homo sapiens, UniProt P15056, V600E)"
property_label = "pIC50"
test_result = 7.10

[[record]]
compound = "CC1(C)OCC(CNC(=O)c2ccc(Nc3ncc4cc(-c5ccncc5)ccc4n3)cc2)O1 (stereo not shown)"
target_desc = "Mutant B-Raf (V600E) enzyme (MT B-Raf) (Homo sapiens, UniProt P15056, V600E)"
property_label = "pIC50"
test_result = 6.70

[[record]]
compound = "CN(C)C(=O)c1ccc(Nc2ncc3cc(-c4ccncc4)ccc3n2)cc1"
target_desc = "Mutant B-Raf (V600E) enzyme (MT B-Raf) (Homo sapiens, UniProt P15056, V600E)"
property_label = "pIC50"
test_result = 7.08

[[record]]
compound = "Oc1ccc(Nc2ncc3cc(-c4ccncc4)ccc3n2)cc1"
target_desc = "Mutant B-Raf (V600E) enzyme (MT B-Raf) (Homo sapiens, UniProt P15056, V600E)"
property_label = "pIC50"
test_result = 7.21

[[record]]
compound = "COCCNC(=O)c1cccc(Nc2ncc3cc(-c4ccncc4)ccc3n2)n1"
target_desc = "Mutant B-Raf (V600E) enzyme (MT B-Raf) (Homo sapiens, UniProt P15056, V600E)"
property_label = "pIC50"
test_result = 5.82

[[record]]
compound = "Cc1cc(Nc2ncc3cc(-c4ccncc4)ccc3n2)ccc1C(=O)NCCN(C)C"
target_desc = "Mutant B-Raf (V600E) enzyme (MT B-Raf) (Homo sapiens, UniProt P15056, V600E)"
property_label = "pIC50"
test_result = 7.02

[[record]]
compound = "c1cc(-c2ccc3nc(Nc4ccc(OCCN5CCCCC5)cc4)ncc3c2)ccn1"
target_desc = "Mutant B-Raf (V600E) enzyme (MT B-Raf) (Homo sapiens, UniProt P15056, V600E)"
property_label = "pIC50"
test_result = 6.64


---

Target: Mutant B-Raf (V600E) enzyme (MT B-Raf) (Homo sapiens, UniProt P15056, V600E)
Experiment: biochemical
Settings: B-Raf Alpha screen comparable to the described assay; phosphorylation of biotinylated HIS-MEK-AVI; results may be an average of two or more results
pIC50: −log10 of the molar value.
property.label: pIC50

[[record]]
query_smiles = "FC(F)(F)c1cccc(Nc2ncc3cc(-c4ccncc4)ccc3n2)c1"
test_result = 5.51

[[record]]
query_smiles = "CN(C)CCOc1ccc(Nc2ncc3cc(-c4ccncc4)ccc3n2)cc1"
test_result = 6.80

[[record]]
query_smiles = "Fc1cccc(Nc2ncc3cc(-c4ccncc4)ccc3n2)c1"
test_result = 6.20

[[record]]
query_smiles = "Cc1cc(Nc2ncc3cc(-c4ccncc4)ccc3n2)ccc1C(=O)NCCN1CCCCC1"
test_result = 6.89

[[record]]
query_smiles = "Cc1nc2cc(Nc3ncc4cc(-c5ccncc5)ccc4n3)ccc2o1"
test_result = 6.03

[[record]]
query_smiles = "O=C(NCCc1ccccn1)c1ccc(Nc2ncc3cc(-c4ccncc4)ccc3n2)cc1"
test_result = 6.60

[[record]]
query_smiles = "COCCNS(=O)(=O)c1ccc(Nc2ncc3cc(-c4ccncc4)ccc3n2)cc1"
test_result = 7.00

[[record]]
query_smiles = "CN(CCCNC(=O)c1ccc(Nc2ncc3cc(-c4ccncc4)ccc3n2)cc1)C(=O)OC(C)(C)C"
test_result = 6.51

[[record]]
query_smiles = "CC(=O)c1ccc(Nc2ncc3cc(-c4ccncc4)ccc3n2)cc1"
test_result = 6.68

[[record]]
query_smiles = "O=C(NCCOCCO)c1ccc(Nc2ncc3cc(-c4ccncc4)ccc3n2)cc1"
test_result = 6.92

[[record]]
query_smiles = "COCCNC(=O)c1ccc(Nc2ncc3cc(-c4ccncc4)ccc3n2)cc1Cl"
test_result = 6.46

